target: UniProtKB Q13639; test: Radioligand Binding Assay (Ki) and cAMP Accumulation Assay (EC50); settings: pH 7.4; 25 °C
measuredParameter: pKi
Numbers only, as −log10 of the molar value.

-- ask Indicate its recorded pKi; the compound in question is COc1cc(N)c(Cl)cc1C(=O)OCCN1CCC(NC(=O)CCCCCN2C(=O)c3cccc4c(N)ccc(c34)C2=O)CC1
-- reply 6.95

----------
biological target: 5-hydroxytryptamine receptor 4 (Homo sapiens); experiment: Radioligand Binding Assay (Ki) and cAMP Accumulation Assay (EC50); conditions: pH 7.4; 25 °C
Sequence (Q13639 whole entry): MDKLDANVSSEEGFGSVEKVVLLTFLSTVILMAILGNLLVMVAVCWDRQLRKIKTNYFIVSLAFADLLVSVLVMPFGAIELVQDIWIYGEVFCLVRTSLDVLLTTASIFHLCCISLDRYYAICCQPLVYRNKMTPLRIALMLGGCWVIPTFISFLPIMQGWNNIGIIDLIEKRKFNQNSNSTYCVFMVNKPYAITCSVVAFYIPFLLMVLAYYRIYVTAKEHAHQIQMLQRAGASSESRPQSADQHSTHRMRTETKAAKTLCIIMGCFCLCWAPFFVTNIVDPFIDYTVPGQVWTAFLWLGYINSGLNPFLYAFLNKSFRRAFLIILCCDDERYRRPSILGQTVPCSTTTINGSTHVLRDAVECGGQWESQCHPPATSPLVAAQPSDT
measuredParameter: EC50 (nM)
Give bare numbers, in nM.

-- ask Indicate its recorded EC50; the compound in question is COc1cc(N)c(Cl)cc1C(=O)OCCN1CCC(NC(=O)CCCCCN2C(=O)c3cccc4c(N)ccc(c34)C2=O)CC1
-- reply 4
